test.method.notes: Vorinostat serum pharmacokinetics, day 4 of cycle 1
Type: in vivo, human
particulars: human, serum, po, 500 mg
parameter: half-life

(Q) Would you kindly share the measured half-life for O=C(CCCCCCC(=O)Nc1ccccc1)NO [vorinostat, suberoylanilide hydroxamic acid] ?
(A) 4.4 h

---

test.method.notes: Vorinostat serum pharmacokinetics, day 4 of cycle 1
Assay type: in vivo, human
particulars: human, serum, po, 100 mg
parameter: Tmax (h)
Give bare numbers, in h.

(Q) Would you kindly share the measured Tmax for O=C(CCCCCCC(=O)Nc1ccccc1)NO [vorinostat, suberoylanilide hydroxamic acid] ?
(A) 1.3

---

test.method.notes: Vorinostat serum pharmacokinetics, day 4 of cycle 1
Format: in vivo, human
particulars: human, serum, po, 100 mg
parameter: Cmax (µM)
Give bare numbers, in µM.

(Q) Would you kindly share the measured Cmax for O=C(CCCCCCC(=O)Nc1ccccc1)NO [vorinostat, suberoylanilide hydroxamic acid] ?
(A) 310

---

test.method.notes: Vorinostat serum pharmacokinetics, day 4 of cycle 1
Format: in vivo, human
particulars: human, serum, po, 100 mg
parameter: AUC(0-inf) (µM·h)
One number for each entry, in µM·h.

(Q) Would you kindly share the measured AUC(0-inf) for O=C(CCCCCCC(=O)Nc1ccccc1)NO [vorinostat, suberoylanilide hydroxamic acid] ?
(A) 760

---

test.method.notes: Vorinostat serum pharmacokinetics, day 4 of cycle 1
Type: in vivo, human
particulars: human, serum, po, 200 mg
parameter: Cmax (µM)
Numbers only, in µM.

(Q) Would you kindly share the measured Cmax for O=C(CCCCCCC(=O)Nc1ccccc1)NO [vorinostat, suberoylanilide hydroxamic acid] ?
(A) 650

---

test.method.notes: Vorinostat serum pharmacokinetics, day 4 of cycle 1
Format: in vivo, human
particulars: human, serum, po, 400 mg
parameter: AUC(0-inf) (µM·h)
Give bare numbers, in µM·h.

(Q) Would you kindly share the measured AUC(0-inf) for O=C(CCCCCCC(=O)Nc1ccccc1)NO [vorinostat, suberoylanilide hydroxamic acid] ?
(A) 5130

---

test.method.notes: Vorinostat serum pharmacokinetics, day 4 of cycle 1
Assay type: in vivo, human
particulars: human, serum, po, 500 mg
parameter: AUC(0-inf)
Give your result as the value with the unit written after it.

(Q) Would you kindly share the measured AUC(0-inf) for O=C(CCCCCCC(=O)Nc1ccccc1)NO [vorinostat, suberoylanilide hydroxamic acid] ?
(A) 8100 µM·h

---

test.method.notes: Vorinostat serum pharmacokinetics, day 4 of cycle 1
Type: in vivo, human
particulars: human, serum, po
parameter: half-life

(Q) Would you kindly share the measured half-life for O=C(CCCCCCC(=O)Nc1ccccc1)NO [vorinostat, suberoylanilide hydroxamic acid] ?
(A) 0.8 to 7.6 h
